Source: the supplement of paper PMC11061612

Could you please report measured combination Emax for the items listed next?
- Test system: NCI-H747 (Colorectal Carcinoma)
- measurement.notes: combination Emax (second highest fraction inhibited in the dose matrix, 72 h); higher = more inhibition; extreme values may be limits of the assay
# print the numeric value only

Prompt: Given the entry COc1cccc(OCCCN)c1-c1cc(Nc2cnc(C#N)cn2)n[nH]1 [Prexasertib] + C=CCn1c(=O)c2cnc(Nc3ccc(N4CCN(C)CC4)cc3)nc2n1-c1cccc(C(C)(C)O)n1 [AZD1775] (first compound max 1 µM, partner max 1 µM) , report its measured combination Emax.
Response: 0.746

Prompt: Given the entry COc1nnc2ccc(N3CCC(c4ccc(OCCN5CCN(C)C(=O)[C@H]5C)cc4)CC3)nn12 [AZD5153] + CCN(CCO)CCCOc1ccc2c(Nc3cc(CC(=O)Nc4cccc(F)c4)[nH]n3)ncnc2c1 [AZD2811] (first compound max 1 µM, 7x7, partner max 1 µM) , report its measured combination Emax.
Response: 0.734

Prompt: Given the entry Cc1c2c(nn1C)CSCc1cc(n(C)n1)CSc1cc(c3ccccc3c1)OCCCc1c(C(=O)O)n(C)c3c-2c(Cl)ccc13 [AZD5991] + C=CCn1c(=O)c2cnc(Nc3ccc(N4CCN(C)CC4)cc3)nc2n1-c1cccc(C(C)(C)O)n1 [AZD1775] (first compound max 1 µM, partner max 1 µM) , report its measured combination Emax.
Response: 0.598

Prompt: Given the entry C=CCn1c(=O)c2cnc(Nc3ccc(N4CCN(C)CC4)cc3)nc2n1-c1cccc(C(C)(C)O)n1 [AZD1775] + C[C@@H]1COCCN1C2=NC(=NC(=C2)C3(CC3)[S@](=N)(=O)C)C4=C5C=CNC5=NC=C4 [AZD6738] (first compound max 1 µM, partner max 10 µM) , report its measured combination Emax.
Response: 0.706

Prompt: Given the entry Cn1cnc2c(F)c(Nc3ccc(Br)cc3Cl)c(C(=O)NOCCO)cc21 [Selumetinib] + C=CCn1c(=O)c2cnc(Nc3ccc(N4CCN(C)CC4)cc3)nc2n1-c1cccc(C(C)(C)O)n1 [AZD1775] (first compound max 10 µM, partner max 1 µM) , report its measured combination Emax.
Response: 0.793

Prompt: Given the entry COc1cccc(OCCCN)c1-c1cc(Nc2cnc(C#N)cn2)n[nH]1 [Prexasertib] + Cc1cc2ncnn2cc1Nc1ncc2c(n1)n(C1CCOCC1)c(=O)n2C [AZD7648] (first compound max 1 µM, 7x7, partner max 10 µM) , report its measured combination Emax.
Response: 0.396

Prompt: Given the entry C[C@@H](c1ccc2nccn2c1)n1nnc2ncc(-c3cnn(C)c3)nc21 [Savolitinib] + Cc1c2c(nn1C)CSCc1cc(n(C)n1)CSc1cc(c3ccccc3c1)OCCCc1c(C(=O)O)n(C)c3c-2c(Cl)ccc13 [AZD5991] (first compound max 1 µM, 7x7, partner max 1 µM) , report its measured combination Emax.
Response: 0.337

Prompt: Given the entry CC(=O)c1c(C)c2cnc(Nc3ccc(N4CCNCC4)cn3)nc2n(C2CCCC2)c1=O [Palbociclib] + CN(CC[C@H](CSC1=CC=CC=C1)NC2=C(C=C(C=C2)S(=O)(=O)NC(=O)C3=CC=C(C=C3)N4CCC(CC4)[C@H](C5=CC=CC=C5C6=CC=C(C=C6)Cl)O)S(=O)(=O)C(F)(F)F)CCO [AZD4320] (first compound max 10 µM, 7x7, partner max 1 µM) , report its measured combination Emax.
Response: 0.555

---

- Test system: 8305C (Thyroid Gland Carcinoma)
- measurement.notes: Bliss excess, mean over the matrix (fraction); higher = more synergy
Kind request: treat -0.04 as inclusive, so Bliss excess at -0.04 or higher is Condition met, anything lower is Condition not met.

Prompt: Hi team, for Cc1c2c(nn1C)CSCc1cc(n(C)n1)CSc1cc(c3ccccc3c1)OCCCc1c(C(=O)O)n(C)c3c-2c(Cl)ccc13 [AZD5991] + Cc1cc2ncnn2cc1Nc1ncc2c(n1)n(C1CCOCC1)c(=O)n2C [AZD7648] (first compound max 1 µM, 7x7, partner max 10 µM) , is the recorded Bliss excess at or above -0.04?
Response: Condition not met

Prompt: Hi team, for CN(CCO)CC[C@H](CSc1ccccc1)Nc1ccc(S(=O)(=O)NC(=O)c2ccc(N3CCC([C@@H](O)c4ccccc4-c4ccc(Cl)cc4)CC3)cc2)cc1S(=O)(=O)C(F)(F)F [AZD4320] + CC(=O)O[C@H]1C(=O)[C@@]2(C)[C@H]([C@H](OC(=O)c3ccccc3)[C@]3(O)C[C@H](OC(=O)[C@H](O)[C@@H](NC(=O)c4ccccc4)c4ccccc4)C(C)=C1C3(C)C)[C@]1(OC(C)=O)CO[C@@H]1C[C@@H]2O [Paclitaxel] (first compound max 1 µM, 7x7, partner max 3 µM) , is the recorded Bliss excess at or above -0.04?
Response: Condition met

Prompt: Hi team, for COc1cccc(OCCCN)c1-c1cc(Nc2cnc(C#N)cn2)n[nH]1 [Prexasertib] + CCc1c2c(nc3ccc(O)cc13)-c1cc3c(c(=O)n1C2)COC(=O)[C@]3(O)CC [SN-38] (first compound max 1 µM, 7x7, partner max 0.3 µM) , is the recorded Bliss excess at or above -0.04?
Response: Condition met

Prompt: Hi team, for CS(=O)(=O)CCNCc1ccc(-c2ccc3ncnc(Nc4ccc(OCc5cccc(F)c5)c(Cl)c4)c3c2)o1 [Lapatinib] + Cn1cnc2c(F)c(Nc3ccc(Br)cc3Cl)c(C(=O)NOCCO)cc21 [Selumetinib] (first compound max 10 µM, 7x7, partner max 10 µM) , is the recorded Bliss excess at or above -0.04?
Response: Condition met

Prompt: Hi team, for NC1(C(=O)N[C@@H](CCO)c2ccc(Cl)cc2)CCN(c2ncnc3[nH]ccc23)CC1 [Capivasertib] + CCN(CCO)CCCOc1ccc2c(Nc3cc(CC(=O)Nc4cccc(F)c4)[nH]n3)ncnc2c1 [AZD2811] (first compound max 10 µM, 7x7, partner max 1 µM) , is the recorded Bliss excess at or above -0.04?
Response: Condition met

Prompt: Hi team, for Cn1cnc2c(F)c(Nc3ccc(Br)cc3Cl)c(C(=O)NOCCO)cc21 [Selumetinib] + CC(C)n1c(=O)n(C)c2cnc3cc(F)c(-c4ccc(OCCCN5CCCCC5)nc4)cc3c21 [AZD1390] (first compound max 10 µM, 7x7, partner max 0.3 µM) , is the recorded Bliss excess at or above -0.04?
Response: Condition not met

Prompt: Hi team, for CC1(C)CCC(CN2CCN(c3ccc(C(=O)NS(=O)(=O)c4ccc(NCC5CCOCC5)c([N+](=O)[O-])c4)c(Oc4cnc5[nH]ccc5c4)c3)CC2)=C(c2ccc(Cl)cc2)C1 [Venetoclax] + C=CCn1c(=O)c2cnc(Nc3ccc(N4CCN(C)CC4)cc3)nc2n1-c1cccc(C(C)(C)O)n1 [AZD1775] (first compound max 1 µM, partner max 1 µM) , is the recorded Bliss excess at or above -0.04?
Response: Condition not met

Prompt: Hi team, for Cc1c2c(nn1C)CSCc1cc(n(C)n1)CSc1cc(c3ccccc3c1)OCCCc1c(C(=O)O)n(C)c3c-2c(Cl)ccc13 [AZD5991] + CS(=O)(=O)CCNCc1ccc(-c2ccc3ncnc(Nc4ccc(OCc5cccc(F)c5)c(Cl)c4)c3c2)o1 [Lapatinib] (first compound max 1 µM, 7x7, partner max 10 µM) , is the recorded Bliss excess at or above -0.04?
Response: Condition not met

Prompt: Hi team, for Cc1c2c(nn1C)CSCc1cc(n(C)n1)CSc1cc(c3ccccc3c1)OCCCc1c(C(=O)O)n(C)c3c-2c(Cl)ccc13 [AZD5991] + CCN(CCO)CCCOc1ccc2c(Nc3cc(CC(=O)Nc4cccc(F)c4)[nH]n3)ncnc2c1 [AZD2811] (first compound max 1 µM, 7x7, partner max 1 µM) , is the recorded Bliss excess at or above -0.04?
Response: Condition met

---

- Test system: SK-OV-3 (Ovarian Carcinoma)
- measurement.notes: Bliss excess, mean over the matrix (fraction); higher = more synergy
Kind request: treat -0.05 as inclusive, so Bliss excess at -0.05 or higher is Satisfied, anything lower is Not satisfied.

Prompt: Hi team, for Cc1cc2ncnn2cc1Nc1ncc2c(n1)n(C1CCOCC1)c(=O)n2C [AZD7648] + O=C(c1cc(Cc2n[nH]c(=O)c3ccccc23)ccc1F)N1CCN(C(=O)C2CC2)CC1 [Olaparib] (first compound max 10 µM, 7x7, partner max 10 µM) , is the recorded Bliss excess at or above -0.05?
Response: Satisfied

Prompt: Hi team, for COc1cccc2c1C(=O)c1c(O)c3c(c(O)c1C2=O)C[C@@](O)(C(=O)CO)C[C@@H]3O[C@H]1C[C@H](N)[C@H](O)[C@H](C)O1 [Doxorubicin] + Cc1cc2ncnn2cc1Nc1ncc2c(n1)n(C1CCOCC1)c(=O)n2C [AZD7648] (first compound max 1 µM, 7x7, partner max 10 µM) , is the recorded Bliss excess at or above -0.05?
Response: Satisfied

Prompt: Hi team, for CCN(CCO)CCCOc1ccc2c(Nc3cc(CC(=O)Nc4cccc(F)c4)[nH]n3)ncnc2c1 [AZD2811] + O=C(c1cc(Cc2n[nH]c(=O)c3ccccc23)ccc1F)N1CCN(C(=O)C2CC2)CC1 [Olaparib] (first compound max 1 µM, 7x7, partner max 10 µM) , is the recorded Bliss excess at or above -0.05?
Response: Satisfied

Prompt: Hi team, for CC1(C)CCC(CN2CCN(c3ccc(C(=O)NS(=O)(=O)c4ccc(NCC5CCOCC5)c([N+](=O)[O-])c4)c(Oc4cnc5[nH]ccc5c4)c3)CC2)=C(c2ccc(Cl)cc2)C1 [Venetoclax] + Cc1cc2ncnn2cc1Nc1ncc2c(n1)n(C1CCOCC1)c(=O)n2C [AZD7648] (first compound max 1 µM, 7x7, partner max 10 µM) , is the recorded Bliss excess at or above -0.05?
Response: Not satisfied

Prompt: Hi team, for Cc1c2c(nn1C)CSCc1cc(n(C)n1)CSc1cc(c3ccccc3c1)OCCCc1c(C(=O)O)n(C)c3c-2c(Cl)ccc13 [AZD5991] + Cn1cnc2c(F)c(Nc3ccc(Br)cc3Cl)c(C(=O)NOCCO)cc21 [Selumetinib] (first compound max 1 µM, 7x7, partner max 3 µM) , is the recorded Bliss excess at or above -0.05?
Response: Not satisfied
